Test system: Streptococcus pyogenes
MEASUREMENT_NOTES: In vitro antibacterial activity of 930 strain of Gram positive bacteria Streptococcus pyogenes
Assay type: functional
In this section, each of the compounds is paired with its reported MIC.
EXPERIMENTAL_ENDPOINT: MIC (µg/mL)

INSERT INTO measurements (compound, system_under_test, units_text, result_modifier, recorded_value) VALUES
  ('CC[C@H]1OC(=O)[C@H](C)[C@@H](O[C@H]2C[C@@](C)(OC)[C@@H](O)[C@H](C)O2)[C@H](C)[C@@H](O[C@@H]2O[C@H](C)C[C@H](N(C)C)[C@H]2O)[C@](C)(O)C[C@@H](C)C(=O)[C@H](C)[C@@H](O)[C@]1(C)O [ERYTHROMYCIN]', 'Streptococcus pyogenes', 'µg/mL', '>', 128),
  ('CC[C@H]1OC(=O)/C(C)=C/[C@H](C)[C@@H](O[C@@H]2O[C@H](C)C[C@H](N(C)C)[C@H]2O)[C@@](C)(OC)C[C@@H](C)C(=O)[C@H](C)[C@H]2N(NCCCc3ccccc3N)C(=O)O[C@]12C', 'Streptococcus pyogenes', 'µg/mL', '=', 128),
  ('CC[C@H]1OC(=O)/C(C)=C/[C@H](C)[C@@H](O[C@@H]2O[C@H](C)C[C@H](N(C)C)[C@H]2O)[C@@](C)(OC)C[C@@H](C)C(=O)[C@H](C)[C@H]2N(NCc3ccc(C(F)(F)F)cc3)C(=O)O[C@]12C', 'Streptococcus pyogenes', 'µg/mL', '=', 16),
  ('CC[C@H]1OC(=O)/C(C)=C/[C@H](C)[C@@H](O[C@@H]2O[C@H](C)C[C@H](N(C)C)[C@H]2O)[C@@](C)(OC)C[C@@H](C)C(=O)[C@H](C)[C@H]2N(NC/C=C/c3cccc4ccccc34)C(=O)O[C@]12C', 'Streptococcus pyogenes', 'µg/mL', '=', 8);

* * *

Test system: Streptococcus pyogenes
MEASUREMENT_NOTES: In vitro antibacterial activity of 930 strain of Gram positive bacteria Streptococcus pyogenes
Type: functional
EXPERIMENTAL_ENDPOINT: MIC

INSERT INTO results (item_smiles, recorded_value) VALUES
  ('CC[C@H]1OC(=O)/C(C)=C/[C@H](C)[C@@H](O[C@@H]2O[C@H](C)C[C@H](N(C)C)[C@H]2O)[C@@](C)(OC)C[C@@H](C)C(=O)[C@H](C)[C@H]2N(NCCCc3ccc(N)cc3)C(=O)O[C@]12C', '> 128 µg/mL'),
  ('CC[C@H]1OC(=O)/C(C)=C/[C@H](C)[C@@H](O[C@@H]2O[C@H](C)C[C@H](N(C)C)[C@H]2O)[C@@](C)(OC)C[C@@H](C)[C@H]2[C@H](C)[C@H]3N(C(=O)O[C@]13C)N2CCCc1ccccc1', '64 µg/mL'),
  ('CC[C@H]1OC(=O)/C(C)=C/[C@H](C)[C@@H](O[C@@H]2O[C@H](C)C[C@H](N(C)C)[C@H]2O)[C@@](C)(OC)C[C@@H](C)C(=O)[C@H](C)[C@H]2N(NCCCc3cccc(N)c3)C(=O)O[C@]12C', '> 128 µg/mL'),
  ('CC[C@H]1OC(=O)/C(C)=C/[C@H](C)[C@@H](O[C@@H]2O[C@H](C)C[C@H](N(C)C)[C@H]2O)[C@@](C)(OC)C[C@@H](C)C(=O)[C@H](C)[C@H]2N(NCc3ccc(N)cc3)C(=O)O[C@]12C', '> 128 µg/mL'),
  ('CC[C@H]1OC(=O)/C(C)=C/[C@H](C)[C@@H](O[C@@H]2O[C@H](C)C[C@H](N(C)C)[C@H]2O)[C@@](C)(OC)C[C@@H](C)C(=O)[C@H](C)[C@H]2N(NCCCc3ccccc3Cl)C(=O)O[C@]12C', '16 µg/mL'),
  ('CC[C@H]1OC(=O)/C(C)=C/[C@H](C)[C@@H](O[C@@H]2O[C@H](C)C[C@H](N(C)C)[C@H]2O)[C@@](C)(OC)C[C@@H](C)C(=O)[C@H](C)[C@H]2N(NCc3ccc(C#N)cc3)C(=O)O[C@]12C', '128 µg/mL'),
  ('CC[C@H]1OC(=O)/C(C)=C/[C@H](C)[C@@H](O[C@@H]2O[C@H](C)C[C@H](N(C)C)[C@H]2O)[C@@](C)(OC)C[C@@H](C)C(=O)[C@H](C)[C@H]2N(NCCCc3ccc(Cl)cc3)C(=O)O[C@]12C', '16 µg/mL'),
  ('CC[C@H]1OC(=O)/C(C)=C/[C@H](C)[C@@H](O[C@@H]2O[C@H](C)C[C@H](N(C)C)[C@H]2O)[C@@](C)(OC)C[C@@H](C)C(=O)[C@H](C)[C@H]2N(NCc3ccc(Cl)cc3)C(=O)O[C@]12C', '32 µg/mL'),
  ('CC[C@H]1OC(=O)/C(C)=C/[C@H](C)[C@@H](O[C@@H]2O[C@H](C)C[C@H](N(C)C)[C@H]2O)[C@@](C)(OC)C[C@@H](C)C(=O)[C@H](C)[C@H]2N(NCc3ccc(NC(C)=O)cc3)C(=O)O[C@]12C', '> 64 µg/mL');

Data provenance is ChEMBL document CHEMBL1131216.
